# Target entity: human RORγt ligand binding domain (RORγt LBD) (Homo sapiens (Human))
# Test summary: RORγt ThermoFluor® assay (thermal shift binding)
# Measurement setup: read-out: ThermoFluor® Assay, Kd
# Description: […] Bar-coded assay plates are robotically loaded onto a thermostatically controlled PCR-type thermal block and then heated at a typical ramp-rate of 1° C./min for all experiments. Fluorescence was measured by continuous illumination with UV light (Hamamatsu LC6) supplied via fiber optic and filtered through a band-pass filter (380-400 nm; >6 OD cutoff). […] Images were collected at each temperature, and the sum of the pixel intensity in a given area of the assay plate was recorded versus temperature. […]
Observation type: Kd (nM)

1: CC(C)(O)CNC(=O)c1nc(C(=O)N2CCC(F)CC2)c(-c2cnc(NC3CC4(CCC4)C3)cc2C(F)(F)F)s1
2: C[C@H](Nc1cc(C(F)(F)F)c(-c2sc(C(=O)NCC(C)(C)O)nc2C(=O)N2CCC[C@@H]2C)cn1)C1CC1
3: CC[C@H](Nc1cc(C(F)F)c(-c2sc(C(=O)N[C@H](C)C(C)(C)O)nc2C(=O)N2CC(F)(F)C[C@@H]2C)cn1)C(F)(F)F
Q. List these items ordered by Kd, big to small. // list labels; follow requested order
A. 1, 2, 3
(1: 20 nM, 2: 2.8 nM, 3: 1.6 nM)

----------
# Target entity: human RORγt ligand binding domain (RORγt LBD) (Homo sapiens (Human))
# Test summary: RORγt ThermoFluor® assay (thermal shift binding)
# Measurement setup: read-out: ThermoFluor® Assay, Kd
pKd: −log10 of the molar value.
Observation type: pKd

>  <Compound>
C[C@H]1CC(F)(F)CN1C(=O)c1nc(C(=O)NCC(C)(C)O)sc1-c1cnc(NCC(C)(C)C)cc1C(F)F

>  <pKd>
8.72

$$$$

1: CC[C@H](Nc1cc(C(F)(F)F)c(-c2sc(C(=O)N[C@H]3COC[C@@H]3O)nc2C(=O)N2CCC[C@@H]2C)cn1)C(F)(F)F
2: C[C@H](NC(=O)c1nc(C(=O)N2CCC[C@@H]2C)c(-c2cnc(N[C@@H](C)C(F)(F)F)cc2C(F)F)s1)C(C)(C)O
3: C[C@H]1CCCCN1C(=O)c1nc(C(=O)NC2CCS(=O)(=O)CC2)sc1-c1cnc(NC2CCCCC2)cc1C(F)(F)F
4: C[C@H](Nc1cc(C(F)(F)F)c(-c2sc(C(=O)NCC3(O)CCC3)nc2C(=O)N2CCC[C@@H]2C)cn1)C1CC1
Q. Highest pKd first, then in falling order down to the smallest. // list labels; follow requested order
A. 3, 1, 4, 2

----------
# Target entity: human RORγt ligand binding domain (RORγt LBD) (Homo sapiens (Human), UniProt P51449)
# Sequence (P51449 other isoform, or with tags, fused parts or gaps): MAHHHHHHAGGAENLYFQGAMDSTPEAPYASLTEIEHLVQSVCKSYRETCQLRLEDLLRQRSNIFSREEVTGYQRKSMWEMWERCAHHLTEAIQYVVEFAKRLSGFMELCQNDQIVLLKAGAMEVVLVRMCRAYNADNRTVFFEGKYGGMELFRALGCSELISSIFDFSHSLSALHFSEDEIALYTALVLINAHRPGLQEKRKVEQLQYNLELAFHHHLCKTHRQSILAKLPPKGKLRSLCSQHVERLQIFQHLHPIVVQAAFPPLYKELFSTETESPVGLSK
# Test summary: RORγt ThermoFluor® assay (thermal shift binding)
# Measurement setup: read-out: ThermoFluor® Assay, Kd
Observation type: Kd (nM)

>  <Molecule>
C[C@H](Nc1cc(C(F)F)c(-c2sc(C(=O)NC3CCC3O)nc2C(=O)N2C3CCC2CC3)cn1)C(F)(F)F (some centres unmarked)

>  <Observation type>
Kd

>  <Unit abbrev>
nM

>  <Data value>
6.3

$$$$
>  <Molecule>
CC[C@@H](Nc1cc(C(F)F)c(-c2sc(C(=O)N[C@H]3COC[C@@H]3O)nc2C(=O)N2CCC[C@@H]2C)cn1)C(F)(F)F

>  <Observation type>
Kd

>  <Unit abbrev>
nM

>  <Data value>
2.6

$$$$
>  <Molecule>
C[C@H]1CCCN1C(=O)c1nc(C(=O)NC2CCS(=O)(=O)CC2)sc1-c1cnc(NC(C)(C)C)cc1C(F)F

>  <Observation type>
Kd

>  <Unit abbrev>
nM

>  <Data value>
2.3

$$$$
>  <Molecule>
CC[C@H](Nc1cc(C(F)F)c(-c2sc(C(=O)N[C@H]3CCC[C@@H]3O)nc2C(=O)N2C3CCC2CC3)cn1)C(F)(F)F

>  <Observation type>
Kd

>  <Unit abbrev>
nM

>  <Data value>
0.69

$$$$
